- Test system: HS 578T breast
- assay: NCI tumour cell line growth inhibition, 48 h
measured_property: TGI

[[record]]
compound = "CCn1c(=O)ccc2ccc(N(CCO)CCO)nc21"
tested_target = "HS 578T breast"
result = "> 100 µM"

[[record]]
compound = "Nc1nc(NNc2ccc(Cl)c(Cl)c2)cc(=O)[nH]1"
tested_target = "HS 578T breast"
result = "> 100 µM"

[[record]]
compound = "CC1=CCC[C@@H]2[C@@](C)(Cc3cc(O)ccc3O)[C@H](C)CC[C@@]12C"
tested_target = "HS 578T breast"
result = "20.6 µM"

[[record]]
compound = "Nc1ccccc1NC(=O)c1ccc(CN2CCC/C(=C\\c3cccc(Cl)c3)C2=O)cc1"
tested_target = "HS 578T breast"
result = "> 100 µM"

[[record]]
compound = "CC(=O)OCC12C(OC(C)=O)C[C@@H](C)C3(CC(c4ccoc4)OC3=O)C1CCC(O)C21CO1 (stereo partly drawn)"
tested_target = "HS 578T breast"
result = "> 100 µM"

[[record]]
compound = "COc1ccc(/C=C/c2cc(N3CCOCC3)c3cc(F)c(F)cc3n2)cc1OC"
tested_target = "HS 578T breast"
result = "28.8 µM"

[[record]]
compound = "CCC1CC(=O)N(SCC(N)C(=O)O)C1=O (stereo not drawn)"
tested_target = "HS 578T breast"
result = "> 100 µM"

[[record]]
compound = "Cc1ccc2[nH]c3[nH]c(=O)[nH]c(=O)c3c2c1"
tested_target = "HS 578T breast"
result = "> 100 µM"

[[record]]
compound = "Cc1c[nH]c(C(=O)O)c1-c1ccc2c(-c3ccccc3)nc3ccccc3n12"
tested_target = "HS 578T breast"
result = "67.3 µM"

[[record]]
compound = "Cc1c(CCCl)c(N=[N+]=[N-])n2c(nc3ccccc32)c1C#N"
tested_target = "HS 578T breast"
result = "2.43 µM"

[[record]]
compound = "Cn1cc(C[C@@H](N)C(=O)O)c2ccccc21"
tested_target = "HS 578T breast"
result = "> 100 µM"

[[record]]
compound = "COC(=O)NN=C(c1ccc(Cl)cc1)c1ccc(Cl)cc1"
tested_target = "HS 578T breast"
result = "> 100 µM"

[[record]]
compound = "CCOC(=O)c1cccc([N+](=O)[O-])c1N"
tested_target = "HS 578T breast"
result = "> 100 µM"


The reported measurements were obtained from PubChem BioAssay (NCI).
